Target: CDC25C (Homo sapiens)
Construct: Recombinant forms of the catalytic domains of CDC25A, -B and -C were obtained through the vectors pET28a-CDC25A-cd, pET28a-CDC25B-cd and pET28a-CDC25C-cd; made in house
Sequence (P30307 321-428 limits assumed): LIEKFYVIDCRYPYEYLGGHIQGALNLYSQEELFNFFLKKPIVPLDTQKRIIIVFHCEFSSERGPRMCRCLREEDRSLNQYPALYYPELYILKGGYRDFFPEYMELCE
Test: Ki from OMFP hydrolysis kinetics (Lineweaver-Burk), CDC25C
Format: biochemical
Method: To measure the inhibition constant (Ki) of the recombinant forms of CDC25A, -B and -C towards the various inhibitors, the affinity of the different forms of CDC25 towards OMFP was measured either in the absence or in the presence of fixed concentrations of the various inhibitors. […] The corresponding Lineweaver-Burk plots allowed the calculation of the KM for OMFP and of the Vmax of OMFP hydrolysis, expressed as a.u./minmax. […]
assay-endpoint: Ki (nM)
Give a bare numeral; the unit nM is implied.

Request: Which Ki value belongs to O=C(O)C1[C@H]2C=C[C@H](C2)[C@H]1c1c2ccc(=O)c(O)c-2oc2c(O)c(O)ccc12 (stereo partly shown) [Compound 24] ?
Result: 400

* * *

biological target: CDC25A (Homo sapiens); construct: Recombinant forms of the catalytic domains of CDC25A, -B and -C were obtained through the vectors pET28a-CDC25A-cd, pET28a-CDC25B-cd and pET28a-CDC25C-cd; made in house; test: Ki from OMFP hydrolysis kinetics (Lineweaver-Burk), CDC25A; type: biochemical
Sequence (P30304 376-482 limits assumed): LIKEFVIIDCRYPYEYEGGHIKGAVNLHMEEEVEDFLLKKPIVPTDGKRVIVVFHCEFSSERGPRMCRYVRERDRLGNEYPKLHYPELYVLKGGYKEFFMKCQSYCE
assay-endpoint: pKi
Just so you know, pKi here is -log10 of the concentration in molar units; reply with that number alone.

Request: Reported pKi, compound O=C(O)C1[C@H]2C=C[C@H](C2)[C@H]1c1c2ccc(=O)c(O)c-2oc2c(O)c(O)ccc12 (stereo partly shown) [Compound 24] : ____
Result: 8.00

* * *

Kindly state remaining activity at 1 µM for each of the entries shown.
molecular target: CDC25B (Homo sapiens, UniProt P30305); construct: Recombinant forms of the catalytic domains of CDC25A, -B and -C were obtained through the vectors pET28a-CDC25A-cd, pET28a-CDC25B-cd and pET28a-CDC25C-cd; made in house; experiment: Residual phosphatase activity of recombinant CDC25B, fluorimetric OMFP assay; format: biochemical; conditions: 1 μM inhibitor; 10 nM CDC25B, 25 μM OMFP; read-out: CDC25B residual activity (%) in the presence of [inhibitor]
Numeric answer only, unit % assumed.

Request: Quick one: remaining activity at 1 µM of CN(C)c1ccc(-c2c3cc(O)c(=O)cc-3oc3cc(O)c(O)cc23)cc1 [Compound 22] ?
Result: 0

Request: Then what about the compound O=C(O)C=Cc1c2ccc(=O)cc-2oc2cc(O)ccc12 [Compound 5] ?
Result: 2

Request: Would you mind doing O=C(O)CCc1c2ccc(=O)cc-2oc2cc(O)ccc12 [Compound 4] as well?
Result: 28

Request: Can you handle O=c1cc2oc3cc(O)c(O)cc3c(-c3ccccc3)c-2cc1O [Compound 9] next?
Result: 0

Request: Similarly, O=C(O)c1ccccc1-c1c2cc(I)c(=O)c(I)c-2oc2c(I)c(O)c(I)cc12 [Compound 15] ?
Result: 18

Request: Now the compound O=C(O)c1c2ccc(=O)cc-2oc2cc(O)ccc12 [Compound 3]
Result: 62

* * *

Molecular target: CDC25B (Homo sapiens, UniProt P30305)
Construct: Recombinant forms of the catalytic domains of CDC25A, -B and -C were obtained through the vectors pET28a-CDC25A-cd, pET28a-CDC25B-cd and pET28a-CDC25C-cd; made in house
Experiment: Residual phosphatase activity of recombinant CDC25B, fluorimetric OMFP assay
Type: biochemical
Settings: 0.2 μM inhibitor; 10 nM CDC25B, 25 μM OMFP; read-out: CDC25B residual activity (%) in the presence of [inhibitor]
Text: Among the twenty-five structures identified from the multiple ligand-based chemoinformatic approach, eight compounds (2, 10, 12–14, and 16–18) were excluded from the analysis, because endowed with a strong fluorescent signal, which interfered with the emission wavelength of the synthetic substrate 3-O-methylfluorescein phosphate (OMFP) used in the fluorimetric assay. […]
Criterion: remaining activity at 0.2 µM strictly under 40%. Met: satisfied. Not met: not satisfied.

Request: Is 40% strictly greater than the compound's reported remaining activity at 0.2 µM? compound: "O=C(O)c1ccccc1-c1c2cc([N+](=O)[O-])c(=O)c(Br)c-2oc2c(Br)c(O)c([N+](=O)[O-])cc12"
Result: not satisfied

Request: Okay, and "O=C(O)c1c2ccc(=O)cc-2oc2cc(O)ccc12" ?
Result: not satisfied

Request: Item: "CN(C)c1ccc(-c2c3cc(O)c(=O)cc-3oc3cc(O)c(O)cc23)cc1"
Result: not satisfied

Request: Now this one: "O=C(O)/C=C/c1c2ccc(=O)c(O)c-2oc2c(O)c(O)ccc12"
Result: satisfied

Request: Also O=C(O)CCc1c2ccc(=O)c(O)c-2oc2c(O)c(O)ccc12 [NSC 119915, reference compound] , if possible.
Result: satisfied

* * *

target: CDC25B (Homo sapiens); construct: Recombinant forms of the catalytic domains of CDC25A, -B and -C were obtained through the vectors pET28a-CDC25A-cd, pET28a-CDC25B-cd and pET28a-CDC25C-cd; made in house; assay: Residual phosphatase activity of recombinant CDC25B, fluorimetric OMFP assay; format: biochemical; settings: 1 μM inhibitor; 10 nM CDC25B, 25 μM OMFP; read-out: CDC25B residual activity (%) in the presence of [inhibitor]
Provide the recorded remaining activity at 1 µM for the entries that follow.
Kindly answer with a numeric value in %, unit omitted.

Request: Endpoint output: remaining activity at 1 µM of "O=C(O)/C=C/c1c2ccc(=O)c(O)c-2oc2c(O)c(O)ccc12" . Value?
Result: 2

Request: What about "Cc1c2ccc(=O)cc-2oc2cc(O)ccc12" ?
Result: 9

Request: Item: O=C(O)C1CCCCC1c1c2ccc(=O)cc-2oc2cc(O)ccc12 (centres unmarked)
Result: 1

Request: And "O=c1ccc2c(-c3ccccc3S(=O)(=O)O)c3ccc(O)c(O)c3oc-2c1O" ?
Result: 24

Request: What do you get for O=C(O)C1[C@H]2C=C[C@H](C2)[C@H]1c1c2ccc(=O)c(O)c-2oc2c(O)c(O)ccc12 (some centres unmarked) ?
Result: 3

Request: Now the same for "O=C(O)c1ccccc1-c1c2cc([N+](=O)[O-])c(=O)c(Br)c-2oc2c(Br)c(O)c([N+](=O)[O-])cc12"
Result: 70

Request: Quick one: O=C(O)C1C(c2c3ccc(=O)c(O)c-3oc3c(O)c(O)ccc23)C2(Cl)C(Cl)=C(Cl)C1(Cl)C2(Cl)Cl (centres unmarked)
Result: 1

Request: Lookup O=C(O)CCc1c2ccc(=O)c(O)c-2oc2c(O)c(O)ccc12 [NSC 119915, reference compound]
Result: 2

* * *

Consider the following molecules; for each one, report its log10 Ki.
Target: CDC25B (Homo sapiens)
Construct: Recombinant forms of the catalytic domains of CDC25A, -B and -C were obtained through the vectors pET28a-CDC25A-cd, pET28a-CDC25B-cd and pET28a-CDC25C-cd
Sequence (P30305 431-538 limits assumed): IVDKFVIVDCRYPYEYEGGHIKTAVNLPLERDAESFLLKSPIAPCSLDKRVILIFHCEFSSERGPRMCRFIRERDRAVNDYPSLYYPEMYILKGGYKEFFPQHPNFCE
Experiment: Ki from OMFP hydrolysis kinetics (Lineweaver-Burk), CDC25B
Settings: 10 nM CDC25B, 1–25 μM OMFP; mean ± S.E.
Remember, log10 of Ki, in nM.

Request: Given the entry O=C(O)C1CCCCC1c1c2ccc(=O)cc-2oc2cc(O)ccc12 (stereo not shown) [Compound 7] , what log10 Ki was observed with CDC25B (Homo sapiens)?
Result: 2.89

Request: Subsequent entry: O=C(O)C1C(c2c3ccc(=O)c(O)c-3oc3c(O)c(O)ccc23)C2(Cl)C(Cl)=C(Cl)C1(Cl)C2(Cl)Cl (stereo not shown) [Compound 25]
Result: 3.04

Request: Entry O=C(O)C1[C@H]2C=C[C@H](C2)[C@H]1c1c2ccc(=O)c(O)c-2oc2c(O)c(O)ccc12 (stereo partly shown) [Compound 24] please
Result: 2.48

Request: Follow-up item: O=C(O)/C=C/c1c2ccc(=O)c(O)c-2oc2c(O)c(O)ccc12 [Compound 6]
Result: 3.04

Request: Also check O=C(O)c1c2ccc(=O)cc-2oc2cc(O)ccc12 [Compound 3]
Result: 3.38

Request: And then O=c1cc2oc3cc(O)c(O)cc3c(-c3ccccc3)c-2cc1O [Compound 9] , what is it?
Result: 2.64

Request: Lookup O=C(O)C=Cc1c2ccc(=O)cc-2oc2cc(O)ccc12 [Compound 5]
Result: 2.08

* * *

target: CDC25C (Homo sapiens); construct: Recombinant forms of the catalytic domains of CDC25A, -B and -C were obtained through the vectors pET28a-CDC25A-cd, pET28a-CDC25B-cd and pET28a-CDC25C-cd; made in house; experiment: Ki from OMFP hydrolysis kinetics (Lineweaver-Burk), CDC25C; assay type: biochemical; conditions: 40 nM CDC25C, 1–25 μM OMFP; mean ± S.E.; read-out: Ki CDC25C
Decide using Ki alone. Strictly below 1 µM: true (1). Equal to or above 1 µM: false (0).

Request: Identify whether the compound "O=C(O)C=Cc1c2ccc(=O)cc-2oc2cc(O)ccc12" records Ki below 1 µM.
Result: true (1)

Request: Then this compound: O=C(O)C1C(c2c3ccc(=O)c(O)c-3oc3c(O)c(O)ccc23)C2(Cl)C(Cl)=C(Cl)C1(Cl)C2(Cl)Cl (stereo not shown)
Result: true (1)

Request: Now the same for O=C(O)CCc1c2ccc(=O)c(O)c-2oc2c(O)c(O)ccc12 [NSC 119915, reference compound]
Result: true (1)

Request: // same read-out, input: O=C(O)C1CCCCC1c1c2ccc(=O)cc-2oc2cc(O)ccc12 (stereo not shown)
Result: false (0)

Request: Try the compound "O=C(O)c1c2ccc(=O)cc-2oc2cc(O)ccc12"
Result: false (0)

Request: Please do the same for "O=c1cc2oc3cc(O)c(O)cc3c(-c3ccccc3)c-2cc1O" as well.
Result: false (0)
